System: WPMY1-CANX-COX4
ASSAY COMMENT: lowest phenotypically active concentration; higher = less potent
MEASUREMENT PARAMETERS: treatment time: 24 h
OUTCOME MEASURE: lowest phenotypically active concentration (µM)

COMPOUND	BOUND TYPE	REPORTED VALUE
CC(=C/[C@@H](C)C(=O)c1ccc(N(C)C)cc1)/C=C/C(=O)NO	≤	0.3
Clc1ccc(C2(c3ccc(-c4cn[nH]c4)cc3)CCNCC2)cc1	≤	0.3
Nc1nc(Cl)nc2c1ncn2[C@H]1C[C@H](O)[C@@H](CO)O1	=	9
Cc1ccc([N+](=O)[O-])cc1S(=O)(=O)N(C)/N=C/c1cnc2ccc(Br)cn12	≤	0.3
CC(CN(C)C)CN1c2ccccc2CCc2ccccc21 (stereo not drawn)	=	9
O=C(Nc1ccc(-c2ccnc(Nc3ccc(N4CCOCC4)cc3)n2)cc1)[C@@H]1CCCN1	=	3
COc1cc2c(NC3CCN(C(C)C)CC3)nc(N3CCC(F)(F)CC3)nc2cc1OCCCN1CCCC1	=	1
COc1ccc(N2C(=O)CSC2c2cccc(Br)c2)c(OC)c1 (stereo not drawn)	=	3
CC(C)N(CCCNC(=O)Nc1ccc(C(C)(C)C)cc1)C[C@H]1O[C@@H](n2cc(Br)c3c(N)ncnc32)[C@H](O)[C@@H]1O	=	3
Cc1c[nH]c2nccc(Oc3c(F)cc(Nc4cc(Cl)nc(N)n4)cc3F)c12	≤	0.3
CN(C)CCCNc1c2c(=O)n(C)c(=O)nc-2n(C)c2ccccc12	=	9
CC(C)c1cc(-c2n[nH]c(=O)n2-c2ccc3c(ccn3C)c2)c(O)cc1O	≤	0.3
CCCNCC(O)COc1ccccc1C(=O)CCc1ccccc1 (stereo not drawn)	=	9
CC[C@H](CO)Nc1nc(NCc2ccccc2)c2ncn(C(C)C)c2n1	=	9
CC(C)CCN1c2nc(Nc3cc(F)c(O)c(F)c3)ncc2N(C)C(=O)C1C (stereo not drawn)	=	3
Cc1ccc(C(=O)N(CCCN)[C@@H](c2oc3cc(Cl)ccc3c(=O)c2Cc2ccccc2)C(C)C)cc1	=	3
CC[C@]1(O)C[C@@H]2CN(CCc3c([nH]c4ccccc34)[C@@](C(=O)OC)(c3cc4c(cc3OC)N(C=O)[C@H]3[C@@](O)(C(=O)OC)[C@H](OC(C)=O)[C@]5(CC)C=CCN6CC[C@]43[C@@H]65)C2)C1	≤	0.3
O=c1c(-c2ccc(O)cc2)coc2cc(O)cc(O)c12	=	9
